Experiment: Preclinical PK, oral and IV
Assay type: in vivo, monkey
Details: monkey, in vivo, iv; read-out: Vss
Experimental Readout: Vd (L/kg)

1) C=CC(=O)N[C@H]1CCC[C@H]1NC(=O)c1sc2nccc3c2c1NC(=O)N3c1cnc(CC(C)C)cc1C (atropisomer, axis not shown) [compound of Formula (III)] :: 0.7

----------
Biological target: CYP3A4 (CYP3A) (Homo sapiens)
Sequence (P08684 2-503): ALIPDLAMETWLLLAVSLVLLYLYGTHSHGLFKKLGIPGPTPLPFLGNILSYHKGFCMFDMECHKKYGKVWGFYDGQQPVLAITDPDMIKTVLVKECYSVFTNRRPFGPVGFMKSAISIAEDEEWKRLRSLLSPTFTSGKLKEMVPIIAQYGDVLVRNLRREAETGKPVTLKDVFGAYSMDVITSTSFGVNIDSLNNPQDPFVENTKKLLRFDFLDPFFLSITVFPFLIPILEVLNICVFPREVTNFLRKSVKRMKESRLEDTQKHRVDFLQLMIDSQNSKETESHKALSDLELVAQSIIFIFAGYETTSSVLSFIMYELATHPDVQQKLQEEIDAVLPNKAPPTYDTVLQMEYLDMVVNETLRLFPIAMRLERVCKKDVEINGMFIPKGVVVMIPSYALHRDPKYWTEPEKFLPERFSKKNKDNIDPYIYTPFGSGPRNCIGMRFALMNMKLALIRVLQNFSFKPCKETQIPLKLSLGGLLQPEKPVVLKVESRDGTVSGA
Experiment: Time-dependent inhibition of CYP3A in human liver microsomes
Type: in vitro ADME
Settings: probe testosterone, with 30 min preincubation
pIC50: −log10 of the molar value.
Experimental Readout: pIC50

1. C=CC(=O)N[C@H]1CCC[C@H]1NC(=O)c1sc2nccc3c2c1NC(=O)N3c1cnc(CC(C)C)cc1C (atropisomer, axis not shown) :: 5.01

----------
Assay: Phase 1 first-in-human study, plasma pharmacokinetics
Assay type: in vivo
Details: both sexes, human, plasma, po, 100 mg, 100 mg QD oral solution, fed, Day 1
Experimental Readout: Cmax (ng/mL)

1. C=CC(=O)N[C@H]1CCC[C@H]1NC(=O)c1sc2nccc3c2c1NC(=O)N3c1cnc(CC(C)C)cc1C (atropisomer, axis not shown) :: 464

----------
Target sequence: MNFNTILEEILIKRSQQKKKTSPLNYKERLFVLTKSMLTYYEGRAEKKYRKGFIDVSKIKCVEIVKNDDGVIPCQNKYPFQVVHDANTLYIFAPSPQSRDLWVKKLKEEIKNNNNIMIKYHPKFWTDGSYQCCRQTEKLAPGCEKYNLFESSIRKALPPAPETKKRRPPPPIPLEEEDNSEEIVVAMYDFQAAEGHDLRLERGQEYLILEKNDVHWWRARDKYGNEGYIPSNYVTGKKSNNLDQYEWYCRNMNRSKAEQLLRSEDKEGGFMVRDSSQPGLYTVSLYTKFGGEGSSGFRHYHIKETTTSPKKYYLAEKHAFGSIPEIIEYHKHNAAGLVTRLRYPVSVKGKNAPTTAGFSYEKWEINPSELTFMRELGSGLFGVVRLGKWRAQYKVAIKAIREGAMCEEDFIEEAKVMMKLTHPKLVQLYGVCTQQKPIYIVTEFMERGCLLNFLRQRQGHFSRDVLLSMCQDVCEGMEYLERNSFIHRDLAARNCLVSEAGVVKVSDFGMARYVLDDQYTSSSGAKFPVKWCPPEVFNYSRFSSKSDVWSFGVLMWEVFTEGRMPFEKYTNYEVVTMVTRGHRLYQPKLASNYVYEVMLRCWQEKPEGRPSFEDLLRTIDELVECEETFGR
Experimental Readout: IC50 (nM)

1) C=CC(=O)N[C@H]1CCC[C@H]1NC(=O)c1sc2nccc3c2c1NC(=O)N3c1cnc(CC(C)C)cc1C (atropisomer, axis not shown) [compound of Formula (III)] :: 303

----------
Experiment: Phase 1 first-in-human study, plasma pharmacokinetics
Assay type: in vivo
Conditions: male, human, plasma, po, 105 mg, single 105 mg (3 × 35 mg) oral capsule, male fasted; read-out: t1/2, dom (converted)
Experimental Readout: half-life (h)

1) C=CC(=O)N[C@H]1CCC[C@H]1NC(=O)c1sc2nccc3c2c1NC(=O)N3c1cnc(CC(C)C)cc1C (atropisomer, axis not shown) [compound of Formula (III)] :: 1.9

----------
Assay: Metabolic stability in hepatocytes
Type: in vitro ADME
Conditions: rat, read-out: T1/2, hepatocytes
Experimental Readout: half-life (h)

1) C=CC(=O)N[C@H]1CCC[C@H]1NC(=O)c1sc2nccc3c2c1NC(=O)N3c1cnc(CC(C)C)cc1C (atropisomer, axis not shown) :: 2.12
